# system: hOX1R (Homo sapiens)
# Sequence (O43613 1-425): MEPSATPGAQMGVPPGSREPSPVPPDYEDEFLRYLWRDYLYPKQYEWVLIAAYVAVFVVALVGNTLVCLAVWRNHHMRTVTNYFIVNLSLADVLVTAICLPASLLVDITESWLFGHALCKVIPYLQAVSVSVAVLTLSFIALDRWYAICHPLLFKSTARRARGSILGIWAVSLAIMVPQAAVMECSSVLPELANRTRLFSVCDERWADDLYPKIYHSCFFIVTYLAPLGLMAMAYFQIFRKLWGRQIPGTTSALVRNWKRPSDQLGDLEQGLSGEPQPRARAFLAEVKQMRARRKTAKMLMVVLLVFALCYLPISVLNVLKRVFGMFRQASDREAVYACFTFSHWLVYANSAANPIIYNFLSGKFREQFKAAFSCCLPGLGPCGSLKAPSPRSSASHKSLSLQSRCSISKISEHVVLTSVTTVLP
# assay_overview: FLIPR Ca2+ Flux Assay, hOX1R
# settings: CHO cells expressing orexin-1 receptor; agonist 70 pM Ala-6,12 orexin-A
Answer each item with its documented log10 IC50.
Could you please treat all values as log10 of IC50 in µM?

Would you kindly share the measured log10 IC50 for "Cc1ccnc(O[C@@H]2CC[C@@H](C)N(C(=O)c3ccc(Cl)cc3-n3nccn3)C2)c1C#N" ? 0.57

Would you kindly share the measured log10 IC50 for "Cc1ccnc(O[C@@H]2CC[C@@H](C)N(C(=O)c3ccccc3-n3nccn3)C2)c1C#N" ? -0.33

Would you kindly share the measured log10 IC50 for "Cc1ccnc(O[C@@H]2CC[C@@H](C)N(C(=O)c3ccc(F)cc3-n3nccn3)C2)c1C#N" ? 0.87

Would you kindly share the measured log10 IC50 for "Cc1ccnc(O[C@@H]2CC[C@@H](C)N(C(=O)c3cccc(C)c3-n3nccn3)C2)c1C#N" ? -0.34

Would you kindly share the measured log10 IC50 for "Cc1ccnc(O[C@@H]2CC[C@@H](C)N(C(=O)c3cccc(F)c3-n3nccn3)C2)c1C#N" ? 0.56

Would you kindly share the measured log10 IC50 for "COc1cccc(-n2nccn2)c1C(=O)N1C[C@H](Oc2nccc(C)c2C#N)CC[C@H]1C" ? 0.06

Would you kindly share the measured log10 IC50 for "COc1ccc(C(=O)N2C[C@H](Oc3nccc(C)c3C#N)CC[C@H]2C)c(-n2nccn2)n1" ? 1.00

Would you kindly share the measured log10 IC50 for "CSc1ccnc(O[C@@H]2CC[C@@H](C)N(C(=O)c3ccccc3-n3nccn3)C2)c1C#N" ? 0.87

====

# system: hOX2R (Homo sapiens)
# Sequence (O43614 whole entry): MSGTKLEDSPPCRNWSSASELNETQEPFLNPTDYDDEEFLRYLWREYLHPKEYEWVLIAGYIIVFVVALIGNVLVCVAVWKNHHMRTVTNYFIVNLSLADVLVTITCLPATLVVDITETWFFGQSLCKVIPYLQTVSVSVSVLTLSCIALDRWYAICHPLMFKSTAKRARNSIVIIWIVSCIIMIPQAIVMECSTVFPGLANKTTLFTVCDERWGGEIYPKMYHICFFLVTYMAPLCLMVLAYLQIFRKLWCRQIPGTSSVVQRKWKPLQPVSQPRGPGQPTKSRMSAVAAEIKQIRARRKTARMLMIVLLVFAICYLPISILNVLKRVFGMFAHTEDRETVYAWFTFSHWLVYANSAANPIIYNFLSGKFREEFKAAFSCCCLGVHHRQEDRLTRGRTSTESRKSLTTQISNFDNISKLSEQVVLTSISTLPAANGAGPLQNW
observation_type: Ki (nM)
// return numeric value only (unit: nM, not printed)

Would you kindly share the measured Ki for "COc1ccc(C(=O)N2C[C@H](Oc3nccc(C)c3C#N)CC[C@H]2C)c(-n2nccn2)c1" ? 60

====

# system: human orexin-2 receptor (Homo sapiens)
# Sequence (O43614 whole entry): as above
# assay_overview: FLIPR Ca2+ Flux Assay, hOX2R
# settings: CHO cells expressing the human orexin-2 receptor; agonist 70 pM Ala-6,12 orexin-A
pIC50: −log10 of the molar value.
Label n if pIC50 falls below 7; label y in every other case.

Please check the record CSc1ccnc(O[C@@H]2CC[C@@H](C)N(C(=O)c3ccccc3-n3nccn3)C2)c1C#N [Example 1] and state if its pIC50 is at or above 7. y

Please check the record Cc1ccnc(O[C@@H]2CC[C@@H](C)N(C(=O)c3ccccc3-n3nccn3)C2)c1C#N [Example 2] and state if its pIC50 is at or above 7. y

Please check the record Cc1ccnc(O[C@@H]2CC[C@@H](C)N(C(=O)c3ccc(F)cc3-n3nccn3)C2)c1C#N [Example 8] and state if its pIC50 is at or above 7. y

Please check the record COc1ccc(C(=O)N2C[C@H](Oc3nccc(C)c3C#N)CC[C@H]2C)c(-n2nccn2)n1 [Example 12] and state if its pIC50 is at or above 7. n

Please check the record Cc1ccnc(O[C@@H]2CC[C@@H](C)N(C(=O)c3cccc(C)c3-n3nccn3)C2)c1C#N [Example 7] and state if its pIC50 is at or above 7. y

Please check the record Cc1ccnc(O[C@@H]2CC[C@@H](C)N(C(=O)c3cccc(F)c3-n3nccn3)C2)c1C#N [Example 10] and state if its pIC50 is at or above 7. y

Recorded values, source patent US9643955B2.
